Target System: HUMAN LUNG TRYPTASE
Assay Procedure: In vitro inhibition of human lung tryptase, rate constants by progress curve analysis
Run Parameters: nonlinear regression (ENZFITTER)
Ki values, listed per item
Number only, in nM; omit the unit.

Molecule	Target System	Output Unit	Ki
Cl.Cl.N=C(N)NCCCC(NC(=O)[C@@H]1CCCN1C(=O)[C@H]1Cc2ccccc2CN1)C(=O)C(F)(F)C(F)(F)F.O (stereo partly drawn) [D-3-TIC--Pro--Arg--CF2 CF3, dihydrochloride, hydrate]	HUMAN LUNG TRYPTASE	nM	75

API: the following record is the query input.
Data request, read-out Ki, for CC(=O)O.F.N=C(N)NCCCC(NC(=O)[C@@H]1CCCN1C(=O)[C@H](N)Cc1ccccc1)C(=O)C(F)(F)F.O (stereo partly drawn) [D-Phe--Pro--Arg--CF3, acetate, hydrate] 500
